# credit: a collection of fitness landscapes (doi:10.1126/science.1257360)

B1: PhoQ; a variant is named by its letters at X, in order, P23837 (parent)
chain: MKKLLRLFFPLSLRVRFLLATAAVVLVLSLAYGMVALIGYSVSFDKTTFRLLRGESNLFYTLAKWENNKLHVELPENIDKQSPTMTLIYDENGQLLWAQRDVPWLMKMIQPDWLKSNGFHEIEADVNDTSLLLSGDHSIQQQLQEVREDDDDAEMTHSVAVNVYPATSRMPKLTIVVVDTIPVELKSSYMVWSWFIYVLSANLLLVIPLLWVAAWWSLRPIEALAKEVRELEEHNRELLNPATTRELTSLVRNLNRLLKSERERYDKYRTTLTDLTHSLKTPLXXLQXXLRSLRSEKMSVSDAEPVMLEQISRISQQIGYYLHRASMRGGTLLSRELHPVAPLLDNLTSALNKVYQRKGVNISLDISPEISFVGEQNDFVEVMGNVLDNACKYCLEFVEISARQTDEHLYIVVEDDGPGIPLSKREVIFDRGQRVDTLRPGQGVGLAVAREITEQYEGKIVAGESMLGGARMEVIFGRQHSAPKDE

# Variants of: B1
# experimentDescription: enrichment ratio after two sorts for PhoP signalling (ratio (wild type AVST 3.29)); higher = more functional
# reportedConditions: with PhoP (E. coli)
Whole data set: some 140,000 sequences, median “enrichment ratio after two sorts for PhoP signalling” near 0, cut for the highest 2% near 11. The sample as a whole holds a higher share of the highest values than the screen did.
Field: enrichment ratio. Provide a value for each of the variants that follow.

Guide cases for enrichment ratio, answers given:
mutationNotation | result
SCAE | 8.81
LGMC | ≤ 0.25
SFQN | ≤ 0.25
TGHW | ≤ 0.25

// for each variant below, give its enrichment ratio
1. ATFM
2. ATSV
3. TTSV
4. YHPC
5. YDSV
6. LCTR

Response:
1: ≤ 0.25; 2: 12.7; 3: 15.8; 4: ≤ 0.25; 5: ≤ 0.25; 6: ≤ 0.25

The reported value for "KQSV" in terms of enrichment ratio is ≤ 0.25
